target: Glycerol kinase (Homo sapiens, UniProt P32189)
Sequence (P32189 whole entry): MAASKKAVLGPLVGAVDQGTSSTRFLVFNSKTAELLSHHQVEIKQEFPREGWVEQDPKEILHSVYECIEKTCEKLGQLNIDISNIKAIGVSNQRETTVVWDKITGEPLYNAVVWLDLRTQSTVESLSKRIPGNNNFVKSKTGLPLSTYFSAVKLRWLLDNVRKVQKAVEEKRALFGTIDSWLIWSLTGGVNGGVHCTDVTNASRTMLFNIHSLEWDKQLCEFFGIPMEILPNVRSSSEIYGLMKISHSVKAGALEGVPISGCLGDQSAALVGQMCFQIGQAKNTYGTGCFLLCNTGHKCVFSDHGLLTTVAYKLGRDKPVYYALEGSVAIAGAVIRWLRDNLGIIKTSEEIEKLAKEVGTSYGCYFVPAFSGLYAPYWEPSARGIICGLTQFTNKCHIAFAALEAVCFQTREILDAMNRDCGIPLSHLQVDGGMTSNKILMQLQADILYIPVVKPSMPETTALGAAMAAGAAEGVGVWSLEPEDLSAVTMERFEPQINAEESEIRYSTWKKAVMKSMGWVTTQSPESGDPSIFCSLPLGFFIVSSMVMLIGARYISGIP
Ki vs 900 µM: less than gives T; not less than gives F.

hey, is Ki for Nc1ncnc2c1ncn2[C@@H]1O[C@H](COP(=O)(O)OP(=O)(O)CP(=O)(O)O)[C@@H](O)[C@H]1O lower than 900 µM or not?
T

hey, is Ki for Nc1ncnc2c1ncn2[C@@H]1O[C@H](COP(=O)(O)OP(=O)(O)OP(=O)(O)O)[C@@H](O)[C@H]1O [ADENOSINE TRIPHOSPHATE] lower than 900 µM or not?
T

hey, is Ki for Nc1ncnc2c1ncn2[C@@H]1O[C@H](COP(=O)(O)OP(=O)(O)C(F)(F)P(=O)(O)O)[C@@H](O)[C@H]1O lower than 900 µM or not?
T

hey, is Ki for Nc1ncnc2c1ncn2C1O[C@H](COP(=O)(O)OP(=O)(O)C[As](=O)(O)O)[C@@H](O)[C@H]1O (stereo not given in full) lower than 900 µM or not?
F
